- ASSAY EXPLANATION: First-in-human PET/CT in advanced NSCLC patients: tumor uptake and biodistribution
- EXPERIMENTAL SETUP: human, tumor, iv, SUVmax of tumor before treatment, patient 6, PD-L1 TPS 30%
MEASURED ATTRIBUTE: SUV (SUV)
# number only, unit SUV dropped from output

Prompt: Data request, read-out SUV, for CCCC[C@H]1C(=O)N(C)[C@@H](CCCC)C(=O)N[C@@H](CCCNC(=O)CN2CCN(CC(=O)O)CCN(CC(=O)O)CC2)C(=O)N[C@H](C(=O)NCC(N)=O)CSCC(=O)N[C@@H](Cc2ccc(O)cc2)C(=O)N(C)[C@@H](C)C(=O)N[C@@H](CC(N)=O)C(=O)N2CCC[C@H]2C(=O)N[C@@H](Cc2c[nH]cn2)C(=O)N[C@@H](CC(C)C)C(=O)N2C[C@H](O)C[C@H]2C(=O)N[C@@H](Cc2c[nH]c3ccccc23)C(=O)N[C@@H](CO)C(=O)N[C@@H](Cc2cn(C)c3ccccc23)C(=O)N1C [^68Ga-NOTA-WL12, metal not drawn]
Completion: 3.05
